Numbers sourced from paper PMC9388906.

- Test system: E. multilocularis metacestodes (isolate Sval)
- procedure summary: PGI assay (damage marker release), metacestodes, isolate Sval
- Assay type: cell-based, Echinococcus multilocularis
- condition info: Echinococcus multilocularis, 120 h; isolate Sval; 10 μM; 5 days; normoxic; mean (SD) of triplicates; active if >20%; read-out: Metacestodes, PGI assay, relative to positive control Tx-100
# strict inequality: cytotoxicity at 10 µM < 7% yields Satisfied, everything else yields Not satisfied

compound	group label
CCCCCCCc1c(C)[nH]c2cc(OC)ccc2c1=O [ELQ-100]	Satisfied
CCCCCCCCCCCc1c(C)[nH]c2cc(OC)c(Cl)cc2c1=O [ELQ-434]	Satisfied
CCCCCCCCCCCc1c(C)[nH]c2cc(F)cc(F)c2c1=O [ELQ-437]	Not satisfied

Pending compound:
Ask: Determine if CCCCCCCCCCCc1c(C)[nH]c2ccccc2c1=O [ELQ-436] shows cytotoxicity at 10 µM strictly lower than 7%.
Result: Satisfied
